The measurements presented in this section are drawn from the DeepSol protein solubility set.

Assay: soluble on expression in E. coli; label from the status in PepcDB or PDB records
readout-label: soluble on expression in E. coli

item-sequence: MGSDKIHHHHHHMGLNLSKGDMYKFVNYTWNPIKGKCLHDCSYCYMKQINPNANPPRLAEYELNTDLGCGRSIFIGSSTDMFAEDIPSEWIARVLDYCYQNRNMLLPNAYLLQSKNPKRFLEFINHPIMERVVFCTTIETNRFYPEIMNKAPRIDERVEAMEEIARLGRPTMVTAEPLMQFDHEEMVSFIRRCSPKLVNIGRNSCRRIVLPEPTQEEVQQLIAELKSLKSFTKVNVKDNALEWCK
result: not soluble
--
item-sequence: VFILPDCNPVLKFISSARERLLIIAPYIDFRWYKDDGLLEAIKGAKESGAEVKVVLNAKYAKEEAVSTLRKEGVKVELIDNLHGKAIVSDKRLLITSANMNMHGLKLNREIGVIINNPEMADAVIKEFEGGEVTPLD
result: not soluble
--
item-sequence: MGSDKIHHHHHHMIATTIAMDFCQTVTPSEIATVIDSYARGWFLMADEDSSDLGWYRSRDRCLIPLDNRFRYPRSLRRVLNQQRFEFAISRDFLGTIAGCADRPSTWISDELAEIYQQLQRYGWALSWEAWQGDRLVGGILGVAIGSLFIGESMFYHEPEASKAALVTLVQALQQGGWQVFDVQLTNPHLERFGSFCVSDRQYSAQIQTAIARPAKLVTPTGDRFASQPHSSAASDHG
result: not soluble
--
item-sequence: MSLGEPEELVIGGVFSLSSGTSVEACRQALAGAMAAVEWVNSNGGVNIGGSKVPVRLLQEDDKGDPANAVRLIEYMARQRGVGVMLAPCDPGVLVDAVEAARGYGVVSIVYGDAPASVADPGGKTLLVGAPAEEYFTPVLEMVSILDIQSRNLAIVYQDTGFAAAVAEATRNRAVEQGFVVVLYSAYPPQAGEEELGTLALRLQASNPDVIIAIGGFRDGVELVRAMSSYGVEAKFIAMAVAPSVPEFYSELGALSQAILYPTLWELASKPYTTAEGYEWFGPSREEFYSLFREAIESLGHPVSEPGYHAAMAALAVLAVAKAAEEAGSLDPDAIYESLKNIKIMTFAGPFDLNPETGLQNEREVLVGQWINGRRFTVWPVGQAYATPVYPHEGHHHHHH
result: soluble
--
item-sequence: MAGQTLKGPWNNLERLAENTGEFQEVVRAFYDTLDAARSSIRVVRVERVSHPLLQQQYELYRERLLQRCERRPVEQVLYHGTTAPAVPDICAHGFNRSFCGRNATVYGKGVYFAKRASLSVQDRYSPPNADGHKAVFVARVLTGDYGQGRRGLRAPPLRGPGHVLLRYDSAMDCICQPSIFVIFHDTQALPTHLITCEHVPRASPDDPSGAHHHHHH
result: soluble
--
item-sequence: MTEMAKGSVTHQRLIALLSQEGADFRVVTHEAVGKCEAVSEIRGTALGQGAKALVCKVKGNGVNQHVLAILAADQQADLSQLASHIGGLRASLASPAEVDELTGCVFGAIPPFSFHPKLKLVADPLLFERFDEIAFNAGMLDKSVILKTADYLRIAQPELVNFRRTA
result: soluble
--
item-sequence: MGSDKIHHHHHHMGEIMKFYDREKELNYLKTYCQLEPNSILFVYGPKSSGKSTVMRRVIKELENSNIVFFYYNLRKYATPTRDEFLRVFFEKSDKKYLLNKLELNLGVCKFGIEENFDFNNLCLNDVFAKINESINAVVEEGKKPVLIIDELQKLKNIYFNGGKSLLNELFNLFVSLTKMEHLCHVICLTSDTLFIDEIYRNSTLKNASEYYLIDWLRKGTIRNILKEEGFSEEEINYALDYLSLPYEISQLINNKKLGLSVEQTIKQWINVEKDGLKYLIDTTDLDEEGLYNVLSKFKDKIKISYDKEVKKEEMKYLKFLIENEILFYDVINGIIKPTSIIEWHAIKEIINAMQ
result: not soluble
--
item-sequence: EKPANRQQTLEILAQHIEMDGVRQFLSKSLFKNEDHMAWRFNVDSLLSNYAEIIGWQDIAPTEIPTLFIKGGDSDYLMPEHQPSVQRQFKQAKAHIIANTGHWLHAEKPAEVMRVIRKYISS
result: not soluble
--
item-sequence: MNDDALPVHSTDLLDFDEDFIKIDAAICEYDSVGHAPQRKGESAFQWASVETACLALLKKAKDVRVAIWYLRACIARRGLSGLADGVRLLAELMSAPVEELHPRALPDESPGETLLIHLGWLAGPQFLHQLGSSRFEDRDATLNDLIGGRAAAIVEDRDYCVRANTLVHDIKDSLSRIRESVAVVEQELNLSRSLDLLSVAASRLARTDAGRAESESVAGEKPAHAEAGFSPAPDPQQPAAGPGGALRSRQEVGVALERIVEYFRLHEPSHPAPIFLSRIQRMLGAGFEEVMAELYPEAASLVAQLNRPQSSIK
result: not soluble
--
item-sequence: MGSDKIHHHHHHMRMDHQLAERWIAPYSHVLDLGCGNGELLAHLQQNRGVTGYGLEIDEDKINEAIANGLSIVEQDLNDGLARFADNSFDTVVMARALQAVKSPDVLLLDMLRVAREAVITFPNFAHWQNRIHLGLKGIMPVSEALPYEWYNTPNIHLCTFKDFEKLCAQHDIHIINRFAVSDSEKGHSSLMTALIRRAPNLLADVAIYRVSKQKPE
result: not soluble
--
item-sequence: MFYTTDTNQHGLPHDPFKAIVAPRPIGWIGSKGREGVLNLSPYSFFNAISDRPKLVMFSSSGRKDSLRNVEETGVFTANLVSRHLVDRMNASSAPVAYDVDEFALAGLTAVDGRVVDAPFVREALAVLECRATQIQQLTDIEGKPTDSWMVIGQVMAIHIGETIIRDGRIDMGLARPVARMGYMDYCDGGSDVFQLQRPSAAPSV
result: soluble
--
item-sequence: MGSDKIHHHHHHMNNQEKNMLGFNQDEYLTSAREIIAARQKAEQVADEIYQAGFSSLFFASVGGSLAPMMAINEFAKELTTLPVYVEQAAELIHKGNKRLNKDSVVITLSKSGDTKESVAIAEWCKAQGIRVVAITKNADSPLAQAATWHIPMRHKNGVEYEYMLLYWLFFRVLSRNNEFASYDRFASQLEILPANLLKAKQKFDPQADAIASRYHNSDYMMWVGGAEMWGEVYLFSMCILEEMQWKRTRPVSSAEFFHGALELLEKDVPLILVKGEGKCRALDERVERFASKITDNLVVIDPKAYALDGIDDEFRWIMAPCVVSTLLVDRLAAHFEKYTGHSLDIRRYYRQFDY
result: soluble
